Consider the following compounds; for each one, report its IC50.
Target: DNAPK (Homo sapiens (Human), UniProt P78527)
Experiment: DNAPK cellular potency assay (DNA-PK cell), pS2056-DNAPK ELISA in irradiated A549 cells
Assay type: cell-based
Settings: 8 Gy radiation, arithmetic mean of two or more experiments, read-out: DNA-PK cell pIC50 (converted)
Record the value in nM, omitting the unit from your answer.

Entry Cc1cc2ncccc2cc1Nc1ncc2c(n1)n([C@H]1CC[C@@](C)(O)CC1)c(=O)n2C ; assay system DNAPK (Homo sapiens (Human), UniProt P78527); IC50 recorded at 10

Entry CC(=O)N1CCC(n2c(=O)n(C)c3cnc(Nc4cc5nc(C)cnc5cc4C)nc32)CC1 ; assay system DNAPK (Homo sapiens (Human), UniProt P78527); IC50 recorded at 100

Entry Cc1cc2nccnc2cc1Nc1ncc2c(n1)n([C@H]1CC[C@](C)(O)CC1)c(=O)n2C ; assay system DNAPK (Homo sapiens (Human), UniProt P78527); IC50 recorded at 50.1

Entry Cc1cc2nnccc2cc1Nc1ncc2c(n1)n([C@@H]1CCCOC1)c(=O)n2C ; assay system DNAPK (Homo sapiens (Human), UniProt P78527); IC50 recorded at 39.8

Entry CC(=O)N1CCC(n2c(=O)n(C)c3cnc(Nc4cc5cccnc5cc4C)nc32)CC1 ; assay system DNAPK (Homo sapiens (Human), UniProt P78527); IC50 recorded at 12.6

Entry Cc1cc2nccnc2cc1Nc1ncc2c(n1)n([C@H]1CC[C@@](C)(O)CC1)c(=O)n2C ; assay system DNAPK (Homo sapiens (Human), UniProt P78527); IC50 recorded at 25.1

Entry Cc1cc2nnccc2cc1Nc1ncc2c(n1)n([C@@H]1CCOC1)c(=O)n2C ; assay system DNAPK (Homo sapiens (Human), UniProt P78527); IC50 recorded at 63.1

Entry Cc1cc2nccnc2cc1Nc1ncc2c(n1)n([C@H]1CC[C@H](O)CC1)c(=O)n2C ; assay system DNAPK (Homo sapiens (Human), UniProt P78527); IC50 recorded at 10

###

Target: AURKB (Aurora B) (Homo sapiens (Human), UniProt Q96GD4)
Sequence (Q96GD4 whole entry): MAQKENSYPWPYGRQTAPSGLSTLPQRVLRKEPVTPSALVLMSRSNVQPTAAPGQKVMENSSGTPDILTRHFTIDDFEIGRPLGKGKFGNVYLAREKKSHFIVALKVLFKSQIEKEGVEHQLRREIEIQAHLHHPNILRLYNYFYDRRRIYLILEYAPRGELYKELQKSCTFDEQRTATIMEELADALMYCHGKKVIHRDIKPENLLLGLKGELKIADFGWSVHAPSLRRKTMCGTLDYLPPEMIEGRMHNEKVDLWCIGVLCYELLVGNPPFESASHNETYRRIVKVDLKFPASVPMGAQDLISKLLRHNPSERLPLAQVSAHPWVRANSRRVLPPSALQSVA
Experiment: Aurora-B enzyme assay (Z'-LYTE)
Assay type: biochemical
Conditions: 75 μM ATP; arithmetic mean of two or more experiments
Consider the following molecules; for each one, report its AurB enz pIC50.

Short answer for CC(=O)N1CCC(n2c(=O)n(C)c3cnc(Nc4cc5ccnnc5cc4C)nc32)CC1 : AurB enz pIC50 was <5

Short answer for Cc1cc2ncccc2cc1Nc1ncc2c(n1)n(C1CCS(=O)(=O)CC1)c(=O)n2C : AurB enz pIC50 was <5

Short answer for Cc1cc2nccnc2cc1Nc1ncc2c(n1)n([C@H]1CCCOC1)c(=O)n2C : AurB enz pIC50 was <5

Short answer for Cc1cc2ncccc2cc1Nc1ncc2c(n1)n([C@@H]1CCN(C)C[C@@H]1F)c(=O)n2C : AurB enz pIC50 was <5

###

Molecular target: DNAPK (Homo sapiens (Human), UniProt P78527)
Test: DNAPK cellular potency assay (DNA-PK cell), pS2056-DNAPK ELISA in irradiated A549 cells
Type: cell-based
Conditions: 8 Gy radiation, arithmetic mean of two or more experiments, read-out: DNA-PK cell pIC50 (converted)
Classes are defined on IC50 with ranges bucket 1: < 0.03 µM; bucket 2: ≥ 0.03 µM and < 0.3 µM; bucket 3: ≥ 0.3 µM

Incoming: Which IC50 category applies to Cc1cc2nccnc2cc1Nc1ncc2c(n1)n([C@H]1CCCOC1)c(=O)n2C [Example 28] here?
Outgoing: bucket 1

Incoming: Which IC50 category applies to Cc1cc2nccc(C)c2cc1Nc1ncc2c(n1)n([C@H]1CC[C@H](O)CC1)c(=O)n2C [Example 8] here?
Outgoing: bucket 1

Incoming: Which IC50 category applies to Cc1cc2nnccc2cc1Nc1ncc2c(n1)n([C@H]1CC[C@](C)(O)CC1)c(=O)n2C [Example 17] here?
Outgoing: bucket 2

Incoming: Which IC50 category applies to Cc1cc2ncccc2cc1Nc1ncc2c(n1)n(C1CCN(CCO)CC1)c(=O)n2C [Example 48] here?
Outgoing: bucket 3

Incoming: Which IC50 category applies to Cc1cc2nccnc2cc1Nc1ncc2c(n1)n([C@@H]1CCCOC1)c(=O)n2C [Example 26] here?
Outgoing: bucket 2

Incoming: Which IC50 category applies to Cc1cc2nccnc2cc1Nc1ncc2c(n1)n([C@@H]1CCOC1)c(=O)n2C [Example 24] here?
Outgoing: bucket 2

Incoming: Which IC50 category applies to Cc1cc2nccnc2cc1Nc1ncc2c(n1)n([C@H]1CC[C@@H](O)CC1)c(=O)n2C [Example 13] here?
Outgoing: bucket 1

Incoming: Which IC50 category applies to Cc1cc2nccnc2cc1Nc1ncc2c(n1)n([C@H]1CCOC1)c(=O)n2C [Example 22] here?
Outgoing: bucket 1

Incoming: Which IC50 category applies to CC(=O)N1CCC(n2c(=O)n(C)c3cnc(Nc4cc5ccnnc5cc4C)nc32)CC1 [Example 1] here?
Outgoing: bucket 2

Incoming: Which IC50 category applies to Cc1cc2ncccc2cc1Nc1ncc2c(n1)n([C@H]1CC[C@@](C)(N)CC1)c(=O)n2C [Example 39] here?
Outgoing: bucket 2

Incoming: Which IC50 category applies to COc1ccnc2cc(C)c(Nc3ncc4c(n3)n([C@H]3CC[C@H](O)CC3)c(=O)n4C)cc12 [Example 9] here?
Outgoing: bucket 1

Incoming: Which IC50 category applies to Cc1cc2ncccc2cc1Nc1ncc2c(n1)n([C@@H]1CCNC[C@@H]1F)c(=O)n2C [Example 38] here?
Outgoing: bucket 3

Incoming: Which IC50 category applies to Cc1cc2ncccc2cc1Nc1ncc2c(n1)n([C@@H]1CCN(C)C[C@@H]1F)c(=O)n2C [Example 46] here?
Outgoing: bucket 3

Incoming: Which IC50 category applies to Cc1cc2ncccc2cc1Nc1ncc2c(n1)n([C@H]1CC[C@](C)(O)CC1)c(=O)n2C [Example 15] here?
Outgoing: bucket 1

Incoming: Which IC50 category applies to COCCN1CCC(n2c(=O)n(C)c3cnc(Nc4cc5cccnc5cc4C)nc32)CC1 [Example 49] here?
Outgoing: bucket 2

Incoming: Which IC50 category applies to CC(=O)N1CCC(n2c(=O)n(C)c3cnc(Nc4cc5ncc(C)nc5cc4C)nc32)CC1 [Example 4] here?
Outgoing: bucket 2

Incoming: Which IC50 category applies to CCN1CCC(n2c(=O)n(C)c3cnc(Nc4cc5cccnc5cc4C)nc32)CC1 [Example 50] here?
Outgoing: bucket 3
